assay: Plasma pharmacokinetics after oral multi-dose anatabine polacrilex; assay type: in vivo, Sprague-Dawley rats; conditions: both sexes, Sprague-Dawley, rat, plasma, oral, 0.2 mg/kg BW, Avg. Conc. of anatabine in plasma, Male and Female, dose group 0.2, combined male and female, 540 min
readout-type: concentration at 540 min (ng/mL)
Numbers only; they are read as ng/mL.

Q. concentration at 540 min for C1=CCC(c2cccnc2)NC1 (racemic) [Anatabine, 1,2,3,6-tetrahydro-[2,3′]bipyridinyl] ?
A. 30

* * *

assay: Plasma toxicokinetics after single i.v. bolus; format: in vivo, Sprague-Dawley rats; details: Sprague-Dawley, rat, plasma, intravenous, 1 mg/kg, Concentration of anatabine in rat plasma, Anatabine 1.0 mg/kg, rat plasma, 2 hr, rats of group 6
readout-type: concentration at 2 h (ng/mL)
Numbers only; they are read as ng/mL.

Q. concentration at 2 h for C1=CCC(c2cccnc2)NC1 (racemic) [Anatabine, 1,2,3,6-tetrahydro-[2,3′]bipyridinyl] ?
A. 147

* * *

assay: Plasma pharmacokinetics after oral multi-dose anatabine polacrilex; assay type: in vivo, Sprague-Dawley rats; settings: female, Sprague-Dawley, rat, plasma, oral, 0.2 mg/kg BW, Avg. Conc. of anatabine in plasma, dose group 0.2, female, 720 min
readout-type: concentration at 720 min (ng/mL)
Numbers only; they are read as ng/mL.

Q. concentration at 720 min for C1=CCC(c2cccnc2)NC1 (racemic) [Anatabine, 1,2,3,6-tetrahydro-[2,3′]bipyridinyl] ?
A. 12

* * *

assay: Concentration in brain extracts after single i.v. bolus; assay type: in vivo, Sprague-Dawley rats; details: female, Sprague-Dawley, rat, brain, intravenous, 1 mg/kg, anatabine 1.0 mg/kg i.v., 6 hr, Female; read-out: Mean concentration in rat brain extracts
readout-type: concentration at 6 h (ng/g)
Numbers only; they are read as ng/g.

Q. concentration at 6 h for C1=CCC(c2cccnc2)NC1 (racemic) [Anatabine, 1,2,3,6-tetrahydro-[2,3′]bipyridinyl] ?
A. 6

* * *

assay: Plasma toxicokinetics after single i.v. bolus; format: in vivo, Sprague-Dawley rats; details: both sexes, Sprague-Dawley, rat, plasma, intravenous, 1 mg/kg, Anatabine 1.0 mg/kg; male and female; 6 hr (2nd 6 hr line), n=6; read-out: Avg. Conc. rat plasma, combined male and female
readout-type: concentration at 6 h (ng/mL)
Numbers only; they are read as ng/mL.

Q. concentration at 6 h for C1=CCC(c2cccnc2)NC1 (racemic) [Anatabine, 1,2,3,6-tetrahydro-[2,3′]bipyridinyl] ?
A. 25

* * *

test: Plasma toxicokinetics after single i.v. bolus; assay type: in vivo, Sprague-Dawley rats; conditions: both sexes, Sprague-Dawley, rat, plasma, intravenous, 0.75 mg/kg, Anatabine 0.75 mg/kg; male and female; 8 hr; read-out: Avg. Conc. rat plasma, combined male and female
readout-type: concentration at 8 h (ng/mL)
Numbers only; they are read as ng/mL.

Q. concentration at 8 h for C1=CCC(c2cccnc2)NC1 (racemic) [Anatabine, 1,2,3,6-tetrahydro-[2,3′]bipyridinyl] ?
A. 10

* * *

assay: Plasma toxicokinetics after single i.v. bolus; assay type: in vivo, Sprague-Dawley rats; details: male, Sprague-Dawley, rat, plasma, iv, 0.1 mg/kg
readout-type: AUC(0-inf) (ng·h/mL)
Numbers only; they are read as ng·h/mL.

Q. AUC(0-inf) for C1=CCC(c2cccnc2)NC1 (racemic) [Anatabine, 1,2,3,6-tetrahydro-[2,3′]bipyridinyl] ?
A. 32

* * *

Assay: Plasma toxicokinetics after single i.v. bolus
Format: in vivo, Sprague-Dawley rats
Details: Sprague-Dawley, rat, plasma, intravenous, 0.75 mg/kg, Concentration of anatabine in rat plasma, Anatabine 0.75 mg/kg, rat plasma, 2 hr, rats of group 4
Protocol: Six rats (3 males and 3 females) were dosed per dose group. […] Plasma and brain homogenates were stored at −80° C. until analysis. […] Four aliquots of each dose level formulation were collected and stored at −80° C. […] The physical signs of each animal were monitored following administration of the test compound. […] Sample preparation. […] The amount of the test agent in the supernatant was determined by liquid chromatography tandem mass spectrometry (LC/MS/MS). […]
readout-type: concentration at 2 h (ng/mL)
Numbers only; they are read as ng/mL.

Q. concentration at 2 h for C1=CCC(c2cccnc2)NC1 (racemic) [Anatabine, 1,2,3,6-tetrahydro-[2,3′]bipyridinyl] ?
A. 89

* * *

assay: Plasma toxicokinetics after single i.v. bolus; type: in vivo, Sprague-Dawley rats; settings: Sprague-Dawley, rat, plasma, intravenous, 1 mg/kg, Concentration of anatabine in rat plasma, Anatabine 1.0 mg/kg, rat plasma, 6 hr, rats of group 6
readout-type: concentration at 6 h (ng/mL)
Numbers only; they are read as ng/mL.

Q. concentration at 6 h for C1=CCC(c2cccnc2)NC1 (racemic) [Anatabine, 1,2,3,6-tetrahydro-[2,3′]bipyridinyl] ?
A. 33

* * *

experiment: Plasma toxicokinetics after single i.v. bolus; type: in vivo, Sprague-Dawley rats; settings: male, Sprague-Dawley, rat, plasma, iv, 0.75 mg/kg
readout-type: MRT (h)
Numbers only; they are read as h.

Q. MRT for C1=CCC(c2cccnc2)NC1 (racemic) [Anatabine, 1,2,3,6-tetrahydro-[2,3′]bipyridinyl] ?
A. 2.5

* * *

experiment: Plasma toxicokinetics after single i.v. bolus; format: in vivo, Sprague-Dawley rats; conditions: Sprague-Dawley, rat, plasma, intravenous, 1 mg/kg, Concentration of anatabine in rat plasma, Anatabine 1.0 mg/kg, rat plasma, 4 hr, rats of group 5
readout-type: concentration at 4 h (ng/mL)
Numbers only; they are read as ng/mL.

Q. concentration at 4 h for C1=CCC(c2cccnc2)NC1 (racemic) [Anatabine, 1,2,3,6-tetrahydro-[2,3′]bipyridinyl] ?
A. 36

* * *

test: Concentration in brain extracts after single i.v. bolus; format: in vivo, Sprague-Dawley rats; conditions: both sexes, Sprague-Dawley, rat, brain, intravenous, 0.75 mg/kg, Anatabine 0.75 mg/kg; male and female; 0.5 hr; read-out: Avg. Conc. rat brain, combined male and female
readout-type: concentration at 0.5 h (ng/g)
Numbers only; they are read as ng/g.

Q. concentration at 0.5 h for C1=CCC(c2cccnc2)NC1 (racemic) [Anatabine, 1,2,3,6-tetrahydro-[2,3′]bipyridinyl] ?
A. 295

* * *

assay: Plasma pharmacokinetics after oral multi-dose anatabine polacrilex; assay type: in vivo, Sprague-Dawley rats; conditions: both sexes, Sprague-Dawley, rat, plasma, oral, 2 mg/kg BW, Avg. Conc. of anatabine in plasma, Male and Female, dose group 2, combined male and female, 475 min
readout-type: concentration at 475 min (ng/mL)
Numbers only; they are read as ng/mL.

Q. concentration at 475 min for C1=CCC(c2cccnc2)NC1 (racemic) [Anatabine, 1,2,3,6-tetrahydro-[2,3′]bipyridinyl] ?
A. 136

* * *

assay: Plasma pharmacokinetics after oral multi-dose anatabine polacrilex; assay type: in vivo, Sprague-Dawley rats; conditions: female, Sprague-Dawley, rat, plasma, po, 6 mg/kg, female rats, mean; read-out: t1/2, terminal (converted)
readout-type: half-life (h)
Numbers only; they are read as h.

Q. half-life for C1=CCC(c2cccnc2)NC1 (racemic) [Anatabine, 1,2,3,6-tetrahydro-[2,3′]bipyridinyl] ?
A. 3.99

* * *

experiment: Plasma pharmacokinetics after oral multi-dose anatabine polacrilex; assay type: in vivo, Sprague-Dawley rats; conditions: both sexes, Sprague-Dawley, rat, plasma, po, 0.6 mg/kg, male and female combined, mean; read-out: t1/2,0→4 (converted)
readout-type: half-life

Q. half-life for C1=CCC(c2cccnc2)NC1 (racemic) [Anatabine, 1,2,3,6-tetrahydro-[2,3′]bipyridinyl] ?
A. 2.05 h

* * *

Experiment: Plasma toxicokinetics after single i.v. bolus
Type: in vivo, Sprague-Dawley rats
Conditions: female, Sprague-Dawley, rat, plasma, iv, 0.1 mg/kg
Experimental: Six rats (3 males and 3 females) were dosed per dose group. […] Plasma and brain homogenates were stored at −80° C. until analysis. […] Four aliquots of each dose level formulation were collected and stored at −80° C. […] The physical signs of each animal were monitored following administration of the test compound. […] Sample preparation. […] The amount of the test agent in the supernatant was determined by liquid chromatography tandem mass spectrometry (LC/MS/MS). […]
readout-type: Vd

Q. Vd for C1=CCC(c2cccnc2)NC1 (racemic) [Anatabine, 1,2,3,6-tetrahydro-[2,3′]bipyridinyl] ?
A. 6.52 L/kg

* * *

test: Plasma toxicokinetics after single i.v. bolus; format: in vivo, Sprague-Dawley rats; conditions: male, Sprague-Dawley, rat, plasma, intravenous, 0.1 mg/kg, Anatabine 0.1 mg/kg; male; 0.5 hr (1st 0.5 hr line); read-out: Avg. Conc. rat plasma
readout-type: concentration at 0.5 h (ng/mL)
Numbers only; they are read as ng/mL.

Q. concentration at 0.5 h for C1=CCC(c2cccnc2)NC1 (racemic) [Anatabine, 1,2,3,6-tetrahydro-[2,3′]bipyridinyl] ?
A. 15.3

* * *

experiment: Plasma toxicokinetics after single i.v. bolus; format: in vivo, Sprague-Dawley rats; conditions: male, Sprague-Dawley, rat, plasma, intravenous, 0.1 mg/kg, Anatabine 0.1 mg/kg; male; 6 hr (2nd 6 hr line); read-out: Avg. Conc. rat plasma
readout-type: concentration at 6 h (ng/mL)
Numbers only; they are read as ng/mL.

Q. concentration at 6 h for C1=CCC(c2cccnc2)NC1 (racemic) [Anatabine, 1,2,3,6-tetrahydro-[2,3′]bipyridinyl] ?
A. 5
